Listing of pIC50 toward UniProtKB P00533, each taken from a published source.
Keep it numeric: pIC50 is minus log10 of the concentration in mol/L.

Past entries and their recorded results:
| smiles_repr | pIC50 |
| --- | --- |
| CCOc1cc2ncnc(Nc3ccc(OCc4ccccn4)c(Cl)c3)c2cc1NC(=O)/C(F)=C/CN(C)C | 9.74 |
| CCS(=O)(=O)N[C@H]1CN[C@H](C#Cc2cc3ncnc(Nc4ccc(OCc5cccc(F)c5)c(Cl)c4)c3s2)C1 | 7.30 |
| N#CC1=C(N)N(c2nnc3c4ccccc4nc(Sc4ccc(Br)cc4)n23)C(=O)C1 | 5.74 |
| CC(=O)c1cc(NCc2c[nH]cn2)cc2c(Nc3ccc(F)c(Cl)c3)c(C#N)cnc12 | 6.81 |
| COc1cc(N(C)CCN(C)C)c(NC(=O)/C=C\C(C)C)cc1Nc1ncc(C#N)c(-c2cn(C)c3ccc(F)cc23)n1 | 6.38 |

Problem: I'd like to know its pIC50. The molecule in question is CN(C)c1ccc(/C=N/NC(=O)Cn2nc(Cc3ccc(Cl)cc3)c3ccccc3c2=O)cc1
Solution: 9.35

Problem: I'd like to know its pIC50. The molecule in question is Nc1ccc2c(Nc3cccc(F)c3)ncnc2c1
Solution: 8.70

Problem: I'd like to know its pIC50. The molecule in question is Fc1cccc(COc2ccc(Nc3ncncc3C#Cc3cccnc3)cc2Cl)c1
Solution: 7.13
